Numbers sourced from PubChem BioAssay.

Method Notes: reducers of endogenous Her2 protein level, primary screen, SKBR3 breast tumor cells, AlphaScreen, ATP viability (AID 461);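 also: percent of carrier control wells set as 100% viability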
Condition Description: 18-24 h, measured here: SKBR3 viability, ATP luminescence, at 10 µM
Property Label: viability (%)
Give the value in % but do not write % after it.

Example molecules with recorded viability:
If you can, please state the reported viability value of COC(=O)c1ccc(C2NC(C(=O)O)CS2)cc1 (stereo not given) .
132

Please do the same for `O=C(CCNS(=O)(=O)c1ccc(Cl)cc1)NCc1ccccn1` as well.
97.5

Please do the same for `C=CS(=O)(=O)c1ccc(Oc2ccc(S(=O)(=O)C=C)cc2)cc1` as well.
243

Please do the same for `COc1ccc(C)cc1-n1nnnc1SCC(=O)Nc1cc(C)on1` as well.
95

Please do the same for `O=C(CSc1nnc(CNC(=O)c2cccs2)o1)Nc1cccc(C(F)(F)F)c1` as well.
83.5

Next:
If you can, please state the reported viability value of `O=C(CCCCC(=O)NCc1cccs1)NCc1cccs1` .
95.5

Please do the same for `Cc1ccc(-n2nnnc2SCC(=O)c2cc(C)n(-c3cc(C)on3)c2C)cc1` as well.
91

Please do the same for O=C1c2ccccc2C(=O)N1CC(O)Cn1nnc2ccccc21 (stereo not given) as well.
120

Please do the same for `CC(=O)c1cc(C#N)c(SCC(=O)OC(C)C)nc1C` as well.
102

Please do the same for `COc1ccc(/C=C(/C#N)c2cccnc2)cc1OC` as well.
92

###

Method Notes: OD615 S. cerevisiae growth inhibition, permissive medium, pilot counter-assay, permissive growth control for S. cerevisiae lifespan shortening project (AID 705)
Condition Description: OD615, 24 h, at 10 µM, stronger effect = higher value
The source made the active and inactive calls.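 Rule for the calls: active = growth inhibition above 25% in both replicates, a cutoff set 3 SD above the mean; inconclusive = above 25% in only one replicate; inactive = the rest.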
Property Label: growth inhibition

If you can, please state the reported growth inhibition value of `O=c1c2c3c(sc2nc2n1CCCCC2)CCCC3` .
-12.6% (inactive)

###

The following compounds are listed with their measured viability values.
Method Notes: reducers of endogenous Her2 protein level, primary screen, SKBR3 breast tumor cells, AlphaScreen, ATP viability (AID 461);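 also: percent of carrier control wells set as 100% viability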
Condition Description: 18-24 h, measured here: SKBR3 viability, ATP luminescence, at 10 µM
Give the value in % but do not write % after it.

If you can, please state the reported viability value of `CCOC(=O)c1[nH]c2ccccc2c1NC(=O)C(CC)CC` .
98.5

Please do the same for `COc1ccc(CCn2c(C)cc(C(=O)CSc3nnnn3C)c2C)cc1` as well.
99.5

Please do the same for `CN(Cc1nc(-c2ccncc2)no1)S(=O)(=O)c1ccccc1` as well.
99.5

Please do the same for `COC(=O)c1ccc(CNC(=O)CSc2nc3sc(C)c(C)c3c(=O)n2C)o1` as well.
93.5

Then there is this compound:
If you can, please state the reported viability value of `CCCCC(=O)NCCc1cc2ccc(OC)cc2[nH]c1=O` .
91.5

###

Method Notes: reducers of endogenous Her2 protein level, primary screen, SKBR3 breast tumor cells, AlphaScreen, ATP viability (AID 461);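 also: percent of carrier control wells set as 100% viability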
Condition Description: 18-24 h, measured here: SKBR3 viability, ATP luminescence, at 10 µM
The following molecules are listed with their measured viability values.
Give the value in % but do not write % after it.

If you can, please state the reported viability value of COc1ccc(Cl)cc1N1CC(c2nc3ccccc3[nH]2)CC1=O (stereo not drawn) .
97.5

Please do the same for `CCOC(=O)c1ccc2[nH]c(C)c(CN3CCN(C)CC3)c(=O)c2c1` as well.
114

Please do the same for COc1ccccc1N1CCN(C(=O)C(Cc2ccccc2)NC(=O)C2CCCCC2)CC1 (stereo not drawn) as well.
73.5

Please do the same for `CC(C)[C@H](NC(=O)OC(C)(C)C)c1nnc(SCC(=O)Nc2ccc(Br)cc2)o1` as well.
96.5

Please do the same for `O=C(O)c1cccc(S(=O)(=O)N2CCOCC2)c1` as well.
118

###

Method Notes: growth inhibitors of H69AR lung tumor, primary screen, human, duplicate replicates (AID 580);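 also: 100% = mean luminescence of untreated wells and 0% = no signal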
Condition Description: H69AR lung tumor cells viability, ATP luminescence, 72 h; at 10 µM; stronger effect = lower value
Property Label: viability (%)
Give the value in % but do not write % after it.

Example molecules with recorded viability:
If you can, please state the reported viability value of `Cc1cn([C@H]2C=C[C@@H](CO)O2)c(=O)[nH]c1=O` .
109

Please do the same for `CCN(Cc1cc2cc(OC)ccc2[nH]c1=O)C(=O)Cc1ccc(OC)cc1` as well.
88.2

Please do the same for CCC(C)(C)NC(=O)C(OC(=O)c1ccco1)c1ccccc1OC (stereo unspecified) as well.
106

Next:
If you can, please state the reported viability value of CC1=CCC(C(C)(C)NC(=O)c2ccccc2)C/C1=N\O (stereo unspecified) .
106

Please do the same for `COC(=O)c1c(O)ccc(Oc2ccccc2)c1C(=O)OC` as well.
85.3

Please do the same for `Cc1nnc(NS(=O)(=O)c2ccc(N)cc2)s1` as well.
96.2

Please do the same for `CCC(=O)c1ccc(OCCN2CCOCC2)cc1` as well.
109

###

Method Notes: HUVEC growth inhibition – cell-based, human, primary screen (AID 575);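 also: 100% = median of untreated cell wells with 0.1% DMSO on each plate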
Condition Description: HUVEC proliferation, CellTiter-Glo luminescence, 72 h; at 10 µM; stronger effect = lower value
Active and inactive are the calls of the source.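 Rule for the calls: active = viability at or below 30% in both replicate assays; inconclusive = viability at or below 30% in just one of the two assays; inactive = the rest.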
Property Label: viability

Example compounds with recorded viability:
If you can, please state the reported viability value of O=C1CC(c2ccc(S(=O)(=O)N3CCN(c4ccccc4)CC3)cc2)CN1 (stereo unspecified) .
93% (inactive)

Please do the same for `CN(C(=O)c1ccc2c(=O)n3c(nc2c1)CCCCC3)c1ccccc1` as well.
97.5% (inactive)

Please do the same for CCOC(=O)C1=C(C)NC(C)=C(C(=O)OCC)C1C(=O)OC1CCOC1=O (stereo unspecified) as well.
87.5% (inactive)

Please do the same for CCS(=O)(=O)Nc1ccc(C(=O)CC2(O)C(=O)Nc3ccccc32)cc1 (stereo unspecified) as well.
90.3% (inactive)

Please do the same for `CCOc1nc2ccccc2nc1NS(=O)(=O)c1ccccc1` as well.
91.3% (inactive)

Then there is this compound:
If you can, please state the reported viability value of `O=C(CCCN1C(=O)c2ccccc2C1=O)Oc1ccc(F)cc1` .
98.2% (inactive)

###

The following compounds are listed with their measured inhibition values.
Method Notes: 384-well plate pilot, post-Golgi transport modulator project, inhibition of yeast transport mutant growth (AID 636)
Condition Description: absorbance 615 nm, about 18 h, stronger effect = higher value
Give the value in % but do not write % after it.

Example compounds with recorded inhibition:
If you can, please state the reported inhibition value of `CCS(=O)(=O)c1nc2ccccc2n1CC(=O)N1CCCCC1` .
-3.42

Please do the same for `CCOC(=O)CSc1nc2sc(C)c(C)c2c(=O)n1C` as well.
-2.34

Please do the same for `CCCN(CCC)S(=O)(=O)c1ccc(NS(C)(=O)=O)cc1` as well.
-1.18

Next:
If you can, please state the reported inhibition value of `O=C(/C=C1\NC2(CCCC2)Cc2ccccc21)N1CCOCC1` .
-7.12

Please do the same for `Nc1nc(-n2cnnc2)nn1-c1ccccc1` as well.
0.13

Please do the same for Cc1ccc(CN2C(=O)CCC2C(=O)NCC2CCCO2)cc1 (configuration not stated) as well.
-1.45

Please do the same for CC(=O)C1=C(O)C(=O)N(Cc2cccnc2)C1c1ccccc1 (configuration not stated) as well.
-6.13

Please do the same for `O=C(Nc1cccc2ccccc12)c1cnccn1` as well.
-7.53

Please do the same for `CCOC(=O)c1[nH]c(C)c(C(=O)N2CCN(c3ccc(F)cc3)CC2)c1C` as well.
-2.37

###

Method Notes: Restrictive medium S. cerevisiae growth inhibition, OD615, pilot screen of yeast lifespan reduction project, restrictive growth control (AID 706);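 also: modified DeaD lifespan yeast strain shifted to restrictive glucose medium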
Condition Description: OD615, 48 h, at 10 µM, stronger effect = higher value
The following molecules are listed with their measured growth inhibition values.
Give the value in % but do not write % after it.

If you can, please state the reported growth inhibition value of `O=C(c1ccco1)N1CCN(S(=O)(=O)c2cccc3nsnc23)CC1` .
-21.4

Please do the same for `O=C(Nc1ccc(Cl)cc1)N(Cc1cccs1)Cc1cccs1` as well.
-21.5

Please do the same for `COc1cccc2c(=O)n(CC(=O)N3CCN(c4ccccc4)CC3)ccc12` as well.
-7.01

###

Method Notes: reducers of endogenous Her2 protein level, primary screen, SKBR3 breast tumor cells, AlphaScreen, ATP viability (AID 461);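 also: percent of carrier control wells set as 100% viability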
Condition Description: 18-24 h, measured here: SKBR3 viability, ATP luminescence, at 10 µM
The following compounds are listed with their measured viability values.
Give the value in % but do not write % after it.

If you can, please state the reported viability value of Cc1ccc2cc3cc(C(=O)N4CC(C)CC(C)C4)oc3nc2c1 (configuration not stated) .
108

Next:
If you can, please state the reported viability value of `COc1ccc(C(=O)NCc2ccccc2OC)cc1` .
110

Please do the same for `CCc1nnc(NC(=O)c2cc3ccccc3oc2=O)s1` as well.
104

Please do the same for `CC(=O)N1CCC2(CC1)CC(=O)c1cc(OCC(=O)NCc3ccc(C)cc3)ccc1O2` as well.
97
